Molecular target: human PCSK9 / human LDLR EGFa domain interaction (Homo sapiens, UniProt Q8NBP7)
Sequence (Q8NBP7 153-692): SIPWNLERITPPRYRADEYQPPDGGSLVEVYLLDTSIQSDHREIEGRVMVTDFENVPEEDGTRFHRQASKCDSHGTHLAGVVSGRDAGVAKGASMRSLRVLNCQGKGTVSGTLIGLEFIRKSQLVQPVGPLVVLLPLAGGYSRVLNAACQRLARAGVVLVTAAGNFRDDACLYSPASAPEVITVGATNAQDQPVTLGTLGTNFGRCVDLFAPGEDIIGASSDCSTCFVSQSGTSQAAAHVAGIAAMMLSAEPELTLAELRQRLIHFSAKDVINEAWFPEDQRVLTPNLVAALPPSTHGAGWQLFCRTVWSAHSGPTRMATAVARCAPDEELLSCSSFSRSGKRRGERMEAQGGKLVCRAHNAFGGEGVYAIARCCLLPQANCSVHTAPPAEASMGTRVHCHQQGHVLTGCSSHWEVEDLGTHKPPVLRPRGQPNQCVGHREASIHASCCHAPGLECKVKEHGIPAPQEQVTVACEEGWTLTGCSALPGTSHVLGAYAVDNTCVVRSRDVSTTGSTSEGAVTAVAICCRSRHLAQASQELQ
Sequence (Q8NBP7 31-152 partner limits assumed): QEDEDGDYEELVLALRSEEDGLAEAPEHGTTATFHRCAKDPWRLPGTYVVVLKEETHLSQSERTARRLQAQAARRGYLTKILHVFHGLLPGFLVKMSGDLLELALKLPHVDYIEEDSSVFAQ
Assay: TR-FRET assay of inhibition of the PCSK9-LDLR protein-protein interaction
Conditions: 20 nM biotinylated human PCSK9 + 20 nM his-tagged human LDLR EGFa domain, 2 hours room temperature
*1 amine or outer side, *2 acyl side, *3 side chain or, on linkers, in order; H or OH if unused. Where a SMILES comes first, the peptide text is derived from it. Bridges are numbered along the chain shown (N, C = ends). [ ]: non-standard residue; d: D form. Trp(7-aza) = N[C@@H](Cc1c[nH]c2ncccc12)C(=O)O; mXylylene = c1cc(C[*:1])cc(C[*:2])c1; Tle = CC(C)(C)[C@H](N)C(=O)O; Nva = CCC[C@H](N)C(=O)O
METRIC: IC50

Query: # lookup: IC50 of CCC[C@@H]1NC(=O)[C@H](Cc2c[nH]c3ncccc23)NC(=O)[C@H]([C@@H](C)O)NC(=O)[C@H](Cc2cnc[nH]2)NC(=O)[C@H](Cc2ccc(O)cc2)NC(=O)[C@H](C(C)(C)C)NC(=O)[C@@H](NC(=O)[C@H](CCCNC(=N)N)NC(C)=O)CSCc2cccc(c2)CSC[C@@H](C(N)=O)NC(=O)[C@H]([C@@H](C)O)NC(=O)[C@H](CCC)NC(=O)[C@H](Cc2ccc(O)cc2)NC(=O)[C@H](CCC(=O)O)NC1=O [Compound 050] (Ac-RC[Tle]YHT[Trp(7-aza)][Nva]EY[Nva]TC-NH2; linker 2-13 via mXylylene)
Reply: 0.1 to 1 µM
